# Tested on: HepG2 cells
# ASSAY_TEXT: Drug toxicity to HepG2 cells (MTT, 48 h)
# Assay type: cell-based, human
# MEASUREMENT_CONTEXT: tested concentration ranges based on compound solubility
Label 1 when HepG2 TC50 is at or above 40 µM; otherwise label -1.

Can Cc1cc(Nc2ccnc3cc(-c4ccc(S(=O)(=O)N5CCN(C)CC5)cc4)ccc23)sn1 be said to have HepG2 TC50 at or above 40 µM?
-1

Does HepG2 TC50 meet or surpass 40 µM for CN1CCN(S(=O)(=O)c2ccc(-c3ccc4c(Nc5ccnnc5)ccnc4c3)cc2)CC1 ?
-1

Could you please find out whether COc1ccc(Nc2ccnc3cc(-c4ccc(C)o4)ccc23)cc1Cl has HepG2 TC50 that meets 40 µM or exceeds it?
1

State whether the measured HepG2 TC50 reaches 40 µM, counting equality as reaching it, for c1coc(-c2ccc3c(Nc4cnccn4)ccnc3c2)c1
1

Kindly determine if HepG2 TC50 recorded for CN1CCN(S(=O)(=O)c2ccc(-c3ccc4c(Nc5ccc6[nH]nnc6c5)ccnc4c3)cc2)CC1 is above or exactly 40 µM.
-1

Given Cc1cc(Nc2ccc3c(Nc4cnccn4)ccnc3c2)on1 , state whether its HepG2 TC50 is at least 40 µM.
1

Is reported HepG2 TC50 greater than or equal to 40 µM here: CN1CCN(S(=O)(=O)c2ccc(-c3ccc4c(Nc5cnc(C#N)cn5)ccnc4c3)cc2)CC1
-1

Could you tell me if the measured HepG2 TC50 of Cn1cc(Nc2ccc3c(Nc4cnccn4)ccnc3c2)cn1 reaches 40 µM or more?
-1

Decide: HepG2 TC50 of COc1ccc(Nc2ccnc3cc(-c4cn[nH]c4)ccc23)cc1Cl >= 40 µM?
-1

Quick check, HepG2 TC50 >= 40 µM? Cc1nnc(Nc2ccc3c(Nc4cnccn4)ccnc3c2)nc1C
-1

For this compound, is measured HepG2 TC50 40 µM or higher? Cc1ccc(-c2ccc3c(Nc4cnccn4)ccnc3c2)o1
1

Hi, just wondering whether Cn1ccnc1Nc1ccc2c(Nc3cnccn3)ccnc2c1 shows HepG2 TC50 of 40 µM or higher.
1

Given the entry CN1CCN(S(=O)(=O)c2ccc(-c3ccc4c(Nc5ncc(Cl)cn5)ccnc4c3)cc2)CC1 , answer whether its HepG2 TC50 meets or surpasses 40 µM.
-1

Exam item: decide whether the reported HepG2 TC50 for Cc1cc(Nc2ccc3c(Nc4cnccn4)ccnc3c2)sn1 is at least 40 µM.
-1

Record COc1ccc(Nc2ccnc3cc(-c4cnn(C)c4)ccc23)cc1Cl ; criterion: HepG2 TC50 no lower than 40 µM. Met?
1

Reported HepG2 TC50 reaches at least 40 µM for Cn1nccc1Nc1ccc2c(Nc3cnccn3)ccnc2c1 ?
-1

Kindly determine if HepG2 TC50 recorded for COc1ccc(Nc2ccnc3cc(Nc4ccnc(N5CCN(C)CC5)n4)ccc23)cc1Cl is above or exactly 40 µM.
-1

Could you verify whether the entry CN1CCN(c2ncc(-c3ccc4c(Nc5ccc6[nH]nnc6c5)ccnc4c3)cn2)CC1 shows HepG2 TC50 of no less than 40 µM?
-1

Ref: paper PMC6283615
